- protocol_notes: refractive index (Na D-line) (dimensionless); xn = mol fraction of the nth substance listed
- test_conditions: 318.15 K; 100.5 kPa; Liquid; Standard Abbe refractometry; x1 = 0.9
observable: refractive index

{"compound": "CC(=O)OCc1ccccc1 [benzyl ethanoate] + CCO", "observable": "refractive index", "observed": 1.48481}
{"compound": "CCOC(=O)CC(C)=O [ethyl 3-oxobutanoate] + CCO", "observable": "refractive index", "observed": 1.4054}
{"compound": "COC(=O)c1ccccc1 [methyl benzoate] + CCO", "observable": "refractive index", "observed": 1.49773}
{"compound": "CCOC(=O)CC(C)C [ethyl 3-methylbutanoate] + CCO", "observable": "refractive index", "observed": 1.38306}
{"compound": "CCC(=O)OCc1ccccc1 [benzyl propanoate] + CCO", "observable": "refractive index", "observed": 1.48106}
{"compound": "CCOC(=O)c1ccccc1O [ethyl 2-hydroxybenzoate] + CCO", "observable": "refractive index", "observed": 1.50479}
